Listed next: entries and their corresponding Monomer (%) of CYP121.
target: UniProtKB P9WPP7; assay: Native mass spectrometry of CYP121 with ligands; format: binding; conditions: Protein-Ligand Ratio 1:0.5

{"columns": ["compound", "tgt", "Monomer (%) of CYP121"],
 "data": [
  ["Oc1ccc(Nc2cc(-c3ccc(O)cc3)n[nH]2)cc1", "UniProtKB P9WPP7", 11],
  ["COc1ccc(-c2n[nH]c(N)c2-c2cccc(-c3cccc(N)c3)c2)cc1 [24a]", "UniProtKB P9WPP7", 19],
  ["Oc1ccc(CNc2[nH]nc(-c3ccc(O)cc3)c2-c2ccc(O)cc2)cc1 [26a]", "UniProtKB P9WPP7", 14],
  ["Nc1cccc(-c2cccc(-c3c(-c4ccc(O)cc4)n[nH]c3N)c2)c1 [25a]", "UniProtKB P9WPP7", 14],
  ["Nc1cccc(-c2cccc(-c3cn[nH]c3N)c2)c1 [19a]", "UniProtKB P9WPP7", 23]
]}

----------
biological target: UniProt:P9WPP7; experiment: Native mass spectrometry of CYP121 with ligands; assay type: binding; settings: Protein-Ligand Ratio 1:1
readout: ligand binding stoichiometry, CYP121 Dimer

{"columns": ["compound", "measured_result"],
 "data": [
  ["Nc1cccc(-c2cccc(-c3c(-c4ccc(O)cc4)n[nH]c3N)c2)c1 [25a]", 2],
  ["Oc1ccc(Nc2cc(-c3ccc(O)cc3)n[nH]2)cc1 [compound 6]", 0],
  ["Oc1ccc(CNc2[nH]nc(-c3ccc(O)cc3)c2-c2ccc(O)cc2)cc1 [26a]", 1],
  ["COc1ccc(-c2n[nH]c(N)c2-c2cccc(-c3cccc(N)c3)c2)cc1 [24a]", 1],
  ["Nc1cccc(-c2cccc(-c3cn[nH]c3N)c2)c1 [19a]", 0]
]}

----------
target: CYP121 (Mycobacterium tuberculosis, UniProt P9WPP7); type: binding; conditions: Gibbs free energy of binding to CYP121 divided by number of heavy atoms (ΔG/HA)
Sequence (P9WPP7 whole entry): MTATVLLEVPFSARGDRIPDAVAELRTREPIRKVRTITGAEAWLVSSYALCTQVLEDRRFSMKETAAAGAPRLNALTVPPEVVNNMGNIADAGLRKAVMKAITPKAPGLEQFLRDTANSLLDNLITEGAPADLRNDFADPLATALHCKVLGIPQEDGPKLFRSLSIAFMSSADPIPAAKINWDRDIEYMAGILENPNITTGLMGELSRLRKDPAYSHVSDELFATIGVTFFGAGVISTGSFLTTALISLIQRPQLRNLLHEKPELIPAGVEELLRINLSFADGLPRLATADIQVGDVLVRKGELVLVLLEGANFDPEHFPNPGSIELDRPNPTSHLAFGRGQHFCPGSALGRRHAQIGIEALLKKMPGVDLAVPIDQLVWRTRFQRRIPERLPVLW
Response field label: string, one of criterion met (LE (ligand efficiency) strictly below 0.2) or criterion not met.

{"columns": ["compound", "class_name"],
 "data": [
  ["Nc1cccc(Cn2cncn2)c1", "criterion not met"],
  ["O=C(Nc1[nH]nc(-c2ccc(O)cc2)c1-c1ccc(O)cc1)c1ccncc1 [29c]", "criterion met"],
  ["Oc1ccc(-c2n[nH]c(NCc3ccc(O)c(Br)c3)c2-c2ccc(O)cc2)cc1 [26b]", "criterion not met"],
  ["Oc1ccc(-c2n[nH]c(NCc3c[nH]cn3)c2-c2ccc(O)cc2)cc1 [26h]", "criterion met"],
  ["Nc1[nH]ncc1-c1ccc(O)cc1", "criterion not met"],
  ["Nc1cccc(-c2cc(-c3cn[nH]c3N)ccc2OCc2ccccc2)c1 [19b]", "criterion not met"],
  ["Cc1ccc2cc(N)ccc2n1", "criterion not met"],
  ["Nc1[nH]nc(-c2ccc(O)cc2)c1-c1ccc(O)cc1", "criterion not met"]
]}

----------
biological target: CYP121 (Mycobacterium tuberculosis); test: Native mass spectrometry of CYP121 with ligands; format: binding; conditions: Protein-Ligand Ratio 1:0.5
Reported ligand binding stoichiometry, CYP121 Monomer is given for each of the following compounds.
readout: ligand binding stoichiometry, CYP121 Monomer

{"columns": ["compound", "measured_result"],
 "data": [
  ["Oc1ccc(Nc2cc(-c3ccc(O)cc3)n[nH]2)cc1", 0],
  ["Nc1cccc(-c2cccc(-c3c(-c4ccc(O)cc4)n[nH]c3N)c2)c1 [25a]", 1],
  ["Nc1cccc(-c2cccc(-c3cn[nH]c3N)c2)c1 [19a]", 0]
]}
